- Test system: Plasmodium falciparum
- PROTOCOL: Screen against P. falciparum Asexual Blood Stage (ABS), at 5uM
- Assay type: functional, Dd2
- CONDITION_LABEL: tested at 5 uM
In all, about 65,000 compounds went through this assay and about 2,100 (3.2%) showed an effect of 50% or more. The median lay at about -52%. Shown is part of a subset that was picked to be rich in strong results.
READOUT_TYPE: INHIBITION (%)
Write down the numeric answer in % and omit the unit.

Example results:
Summary for this molecule, `CCOC[C@]12COC[C@H]1CN(Cc1cccc(OC)c1)C2` : INHIBITION is 3.19

Summary for this molecule, `COc1ccc(NS(=O)(=O)C=c2[nH]c(=O)n3cccc3c2=O)cc1Cl` : INHIBITION is -76.2

Summary for this molecule, `COc1cc(N2C[C@@H]3COC[C@]3(COCc3ccncc3)C2)ncn1` : INHIBITION is -1.95

Summary for this molecule, CCC(CN1CCCC1)n1cncc1-c1cnn(-c2ccc(F)cc2)c1 (centres undefined) : INHIBITION is 43

---
Summary for this molecule, `CC(=O)N1CCN(CCNc2ncc(Br)cc2C)CC1` : INHIBITION is -22.7

Summary for this molecule, NC(=O)C1(Cc2ccc(-c3ccccc3)cc2)CCCNC1 (centres undefined) : INHIBITION is 61.1

Summary for this molecule, `Cn1cc(CNCCc2nccs2)c(-c2cccnc2)n1` : INHIBITION is 1.56

Summary for this molecule, Cc1nc(CN(C)CC2CCCN(CCc3ccc(Cl)cc3)C2)n(C)n1 (centres undefined) : INHIBITION is 54.3

----------
Measured INHIBITION of individual entries
- Tested on: Plasmodium falciparum
- PROTOCOL: Screen against P. falciparum Asexual Blood Stage (ABS), at 5uM
- Type: functional, Dd2
- CONDITION_LABEL: tested at 5 uM
Among all 65,000 compounds or so, about 2,100 (3.2%) showed an effect of 50% or more. The median lay at about -52%. Only a selection was taken, and strong results are over-represented in it overall.
Write down the numeric answer in % and omit the unit.

Summary for this compound, `CCS(=O)(=O)N1CCCN(CCCOC)CC1` : INHIBITION is -97.9

Summary for this compound, `O=C(Cn1ccnc1)N1C[C@@H]2CC[C@H](Oc3ccccc3Cl)[C@@H]2C1` : INHIBITION is -43.2

Summary for this compound, `COCCOCC(=O)N1C[C@@H]2CC[C@H](Oc3ccccc3Cl)[C@@H]2C1` : INHIBITION is -103

---
Summary for this compound, `Cc1cccc(CN2CCc3nnc(CN(C)C)n3CC2)n1` : INHIBITION is -108

Summary for this compound, `CCn1c(=O)nc(N)c2c(-c3ccc(OC)cc3)csc21` : INHIBITION is -67.6

Summary for this compound, `CSC1=Nc2c(cnn2-c2ccc(C)cc2)C2=NCCCN12` : INHIBITION is 53.5

Summary for this compound, `CCOCC(=O)N1C[C@@H]2CC[C@H](Oc3ccccc3)[C@@H]2C1` : INHIBITION is -68.1

Summary for this compound, `Cc1cccc(CN2CCc3nnc(CN4CCCC4=O)n3CC2)n1` : INHIBITION is -48.8

Summary for this compound, CCn1ccnc1C1CCCN(c2nccc3ccccc23)C1 (configuration not stated) : INHIBITION is 30.8

----------
- Tested on: Plasmodium falciparum
- PROTOCOL: Screen against P. falciparum Asexual Blood Stage (ABS), at 5uM
- Type: functional, Dd2
- CONDITION_LABEL: tested at 5 uM
About 2,100 (3.2%) of roughly 65,000 compounds showed an effect of 50% or more. The median lay at about -52%. The entries come from a sample that favours strong results as a whole.
Measured INHIBITION of individual entries

Example results:
Summary for this molecule, `Cc1noc([C@@H]2C[C@H]3OCC[C@H]3N(Cc3cc(C)c(C)o3)C2)n1` : INHIBITION is -151%

Summary for this molecule, `O=C(c1cscn1)N1CCC[C@]2(C[C@H](OCC3CC3)CO2)C1` : INHIBITION is -132%

Summary for this molecule, `c1ccc(N2CCCC2)c(NCc2ccncc2)c1` : INHIBITION is -27.2%

Summary for this molecule, CS(=O)(=O)N1Cc2ccnn2CC(C(=O)NCc2cccnc2)C1 (stereo unspecified) : INHIBITION is -95.4%

Summary for this molecule, FC(F)(F)CCc1ccnc(NC2CCC(n3cnnc3)CC2)n1 (stereo unspecified) : INHIBITION is -54.2%

Summary for this molecule, `N#CCCn1nc(C(F)(F)F)c2c1CCC2` : INHIBITION is -74.2%

Summary for this molecule, `CN1CCC(Oc2ccc(-n3ccnc3-c3ccncc3)cc2)CC1` : INHIBITION is -17%

Summary for this molecule, Cc1nn(C)c(C)c1C1CCCN1Cc1cccc(OCC(N)=O)c1 (stereo unspecified) : INHIBITION is -22.6%

---
Summary for this molecule, `Cc1[nH]/c(=N\C(=O)c2csc(NCC(C)C)n2)sc1C` : INHIBITION is -31.9%

Summary for this molecule, COc1ccc(C)cc1CN(Cc1nc(C)c(C)o1)C1CCN(C)C1 (stereo unspecified) : INHIBITION is 56.2%

Summary for this molecule, c1ncc(Nc2nccc(C3CCCCN3CC3CCCCC3)n2)cn1 (stereo unspecified) : INHIBITION is 52%

----------
- Tested on: Plasmodium falciparum
- PROTOCOL: Screen against P. falciparum Asexual Blood Stage (ABS), at 5uM
- Format: functional, Dd2
- CONDITION_LABEL: tested at 5 uM
The whole screen tested about 65,000 compounds, of which about 2,100 (3.2%) showed an effect of 50% or more. The median lay at about -52%. Only a selection was taken, and strong results are over-represented in it overall.
Entries whose INHIBITION is below -30% take met; entries at or above -30% take not met.

Task: Is INHIBITION strictly under -30% for the entry O=C(Cc1ccccc1)C1CCCN(Cc2cncn2C2CCCC2)C1 (stereo unspecified) ?
Result: not met

Task: Is INHIBITION strictly under -30% for the entry `CCOC(=O)C1CCN(C(=O)c2cnn(-c3ccccc3F)c2N)CC1` ?
Result: met

Task: Is INHIBITION strictly under -30% for the entry COCCn1cncc1CN1CCCC(C(=O)Cc2ccccc2)C1 (stereo unspecified) ?
Result: met

Task: Is INHIBITION strictly under -30% for the entry CC1(c2ccccc2)CCCN(Cc2cncn2C2CC2)C1 (stereo unspecified) ?
Result: not met

Task: Is INHIBITION strictly under -30% for the entry NCC1CN(C(=O)c2cccc(-n3cccn3)c2)CCO1 (stereo unspecified) ?
Result: not met

Task: Is INHIBITION strictly under -30% for the entry `O=S1(=O)NC(c2ccnc(N3CCOCC3)n2)=Nc2ccccc21` ?
Result: not met

Task: Is INHIBITION strictly under -30% for the entry CN1CCCC2(CCN(Cc3cncn3C3CCCCC3)C2)C1=O (stereo unspecified) ?
Result: not met

----------
- Tested on: Plasmodium falciparum
- PROTOCOL: Screen against P. falciparum Asexual Blood Stage (ABS), at 5uM
- Type: functional, Dd2
- CONDITION_LABEL: tested at 5 uM
In all, about 65,000 compounds went through this assay and about 2,100 (3.2%) showed an effect of 50% or more. The median lay at about -52%. The sample holds strong results, similar compounds and a random draw of the others, so the mix is not that of the screen.
Entries whose INHIBITION is below -20% take 1; entries at or above -20% take -1.

Task: Is INHIBITION strictly under -20% for the entry `CCn1ccnc1CN1CCN(CC(=O)NC(C2CC2)C2CC2)CC1` ?
Result: -1

Task: Is INHIBITION strictly under -20% for the entry COc1cc(-c2cccc3c2OC(CN)C3)ccc1O (stereo not given) ?
Result: -1

Task: Is INHIBITION strictly under -20% for the entry CS(=O)(=O)NCCCN1CCCCC1c1cc2ccccc2[nH]1 (stereo not given) ?
Result: -1

Task: Is INHIBITION strictly under -20% for the entry CS(=O)(=O)NCCCN1CCCC1Cc1ccccc1 (stereo not given) ?
Result: 1

Task: Is INHIBITION strictly under -20% for the entry O=C1CC(NCc2ncc[nH]2)CN1CCc1cccc(Cl)c1 (stereo not given) ?
Result: -1

---
Task: Is INHIBITION strictly under -20% for the entry Clc1cccc(N2CCC(NCc3cc[nH]n3)C2)c1 (stereo not given) ?
Result: 1

Task: Is INHIBITION strictly under -20% for the entry NCC1Cc2cc(F)cc(-c3cnccn3)c2O1 (stereo not given) ?
Result: -1

Task: Is INHIBITION strictly under -20% for the entry NCC1Cc2cccc(-c3nccc(N4CCC(O)CC4)n3)c2O1 (stereo not given) ?
Result: -1

Task: Is INHIBITION strictly under -20% for the entry Clc1cccc(N2CCC(NCc3ncc[nH]3)C2)c1 (stereo not given) ?
Result: -1

Task: Is INHIBITION strictly under -20% for the entry Cn1c(=O)c2c(n3ncnc13)NC(=O)CC2c1cccc(Br)c1 (stereo not given) ?
Result: 1

Task: Is INHIBITION strictly under -20% for the entry CS(=O)(=O)NCCCN1CCCC1c1cccc(Br)c1 (stereo not given) ?
Result: -1

Task: Is INHIBITION strictly under -20% for the entry O=C(CCN1CCCCC1c1cc2ccccc2[nH]1)N1CCOCC1 (stereo not given) ?
Result: -1

Task: Is INHIBITION strictly under -20% for the entry Cc1ccc(CNC(=O)NC2CCCc3c2cnn3CCO)cn1 (stereo not given) ?
Result: 1

Task: Is INHIBITION strictly under -20% for the entry `CC(C)CN1CCn2c(nc3cc(C(=O)NC(C)C)ccc32)C1` ?
Result: 1

Task: Is INHIBITION strictly under -20% for the entry COc1ccc(C2CCCCCN2CCCNS(C)(=O)=O)cc1 (stereo not given) ?
Result: -1
